- System: SN12C renal
- PROCEDURE DETAILS: NCI-60 one-dose screen, 48 h (100 = growth as untreated, 0 = no growth, -100 = all killed)
- EXPERIMENTAL SETUP: 10 µM unless noted
This is part of a sample that, as a whole, favours compounds with a hit. Of some 83,000 tested, about 20% had one in any assay.
Each entry below lists one item and its recorded growth value.
// note: answer is a bare numeric in %

Examples from the recorded data:
Cc1ccc(-c2cc(-c3ccccc3C)[nH]c(=O)c2C#N)s1: 91.8
CC(=O)N1C(=S)NC(=O)C1Cn1c(-c2ccccc2)nc2ccccc21 (configuration not stated): 98.6
O=C(O)c1ccc2c(c1)CCC2: 103
CCCc1cc2c(=O)c(C(=O)OC)c[nH]c2cc1N(CC)CC: 94.7

Record summary for O=C(c1ccccc1)N1N=C(c2ccccc2)CC1c1nnc2n(Cc3ccccc3)c(=O)c3c4c(sc3n12)CCCC4 (configuration not stated) : reported growth = 120

Recorded result, O=C(NCCCNc1cc(-c2cn(-c3ccccc3)nc2-c2cccc(O)c2)ccn1)c1ccc(F)cc1 , growth: 55

The compound listed as CCOC(=O)c1c(/C=C/C(=O)O)nc2ccccc2c1/C=C/c1ccccc1 has a reported growth of 27.1

CCN(CC)CCN1CC(O)=C(c2nc(-c3ccc(Cl)cc3)cs2)C1=N has a reported growth of 64.5

growth recorded for this compound, Cc1ccc(Nc2nc(N)nc(CSCC(=O)NN)n2)cc1 , is 94.6

growth reported for this compound O=C(Nc1cccc(C(F)(F)F)c1)Nc1cccc(C(F)(F)F)c1 : 2.57

The recorded growth for entry COc1ccc(-c2nc3c(N)c(CO)c(C)nc3o2)cc1 equals 106

O=C(NC(CSSCC(NC(=O)c1ccccc1)C(=O)O)C(=O)O)c1ccccc1 (configuration not stated) yielded growth of 102

---

- Tested on: RXF 393 renal
- PROCEDURE DETAILS: NCI-60 one-dose screen, 48 h (100 = growth as untreated, 0 = no growth, -100 = all killed)
- EXPERIMENTAL SETUP: 10 µM unless noted
About 83,000 compounds went through this panel and 20% of them were active in at least one assay; those are over-represented in the sample as a whole.
Consider the reported growth of an entry and match it to a band in bucket 1 = under -30%, bucket 2 = from -30% up to 90%, bucket 3 = 90% and over

COCCN(C(=O)c1ccc(F)cc1F)c1c(N)n(Cc2ccccc2)c(=O)[nH]c1=O: bucket 3
CCCCCc1nc2c(c3c1CCCC3)CCCC2: bucket 2
C[C@H](NC(=O)[C@@H]1CSSC[C@@H](NC(=O)c2nc3ccccc3cc2O)C(=O)NCC(=O)N1C)c1ccccc1: bucket 2
COC(=O)[C@]12CC[C@@H](C)[C@H](C)[C@@H]1C1=CC[C@@H]3[C@@]4(C)C(C=O)=C[C@@](C)(COC(=O)/C=C/c5ccccc5)[C@@H]4[C@H](O)C[C@@]3(C)[C@]1(C)CC2: bucket 1
COc1cc2nc(Cl)nc(Nc3ccc(S(=O)(=O)Nc4nccs4)cc3)c2cc1OC: bucket 3

Query :: Which band does COc1ccc(N=Nc2ccc(O)c(=O)cc2)cc1 fall in?
Result :: bucket 2

Query :: Tag the class for Cn1ccc2c(c1=O)C(=O)c1nccc3c1c-2nc1ccccc13
Result :: bucket 2

Query :: Form: Item = COC(=O)[C@]12CC[C@@H](C)[C@H](C)[C@@H]1C1=CC[C@@H]3[C@@]4(C)C(C=O)=C[C@@](C)(COS(C)(=O)=O)C4[C@H](O)C[C@@]3(C)[C@]1(C)CC2 (some centres undefined) ; Class = ?
Result :: bucket 1

The reported numbers originate from PubChem BioAssay (NCI).
